Experiment: Microsomal stability, mouse liver microsomes
Assay type: in vitro ADME
Conditions: 0.5 mg/mL protein, read-out: Microsomal stability (T1/2 min) Mouse
Hi there, I'd appreciate the recorded half-life at 0.5 µM for every entry that follows.

Recorded half-life at 0.5 µM, per entry:
[ask] Name the recorded half-life at 0.5 µM for O=C(c1ccncc1)C1CCCN(Cc2ccccc2)C1 (stereo not drawn) .
[reply] < 10 min

[ask] What would you report for O=C(c1ncccn1)C1CCCN(Cc2ccccc2)C1 (stereo not drawn) ?
[reply] ≥ 30 min

---
[ask] Name the recorded half-life at 0.5 µM for O=C(c1ccc(Cl)cc1)C1CCCN(C(=O)c2ccccc2)C1 (stereo not drawn) .
[reply] < 10 min

###

Molecular target: hERG (IKr current) (Homo sapiens (Human))
Test: hERG inhibition, patch clamp (Port-a-Patch) on HEK cells stably transfected with the hERG clone, IKr current
Assay type: cell-based
Details: human, HEK cells stably transfected with the hERG clone, pH 7.4, IKr current, 30 μM; read-out: Percent Inhibition Mean (%)
experimental.readout: inhibition at 30 µM (%)
Numbers only, in %.

Please give inhibition at 30 µM, item by item, for the list that follows.
1. O=C(c1ccc(Cl)cc1)C1CCCN(C(=O)c2ccccc2)C1 (stereo not drawn)
2. O=C(c1ccncc1)C1CCCN(Cc2ccccc2)C1 (stereo not drawn)

[reply]
1: 39.1; 2: 35.5

[ask] Request body: readout inhibition at 30 µM, system hERG (IKr current) (Homo sapiens (Human)), query O=C(c1ncccn1)C1CCCN(Cc2ccccc2)C1 (stereo not drawn) . Return the value.
[reply] 21.6

###

Biological target: CYP2C9 (Homo sapiens (Human), UniProt P11712)
Sequence (P11712 whole entry): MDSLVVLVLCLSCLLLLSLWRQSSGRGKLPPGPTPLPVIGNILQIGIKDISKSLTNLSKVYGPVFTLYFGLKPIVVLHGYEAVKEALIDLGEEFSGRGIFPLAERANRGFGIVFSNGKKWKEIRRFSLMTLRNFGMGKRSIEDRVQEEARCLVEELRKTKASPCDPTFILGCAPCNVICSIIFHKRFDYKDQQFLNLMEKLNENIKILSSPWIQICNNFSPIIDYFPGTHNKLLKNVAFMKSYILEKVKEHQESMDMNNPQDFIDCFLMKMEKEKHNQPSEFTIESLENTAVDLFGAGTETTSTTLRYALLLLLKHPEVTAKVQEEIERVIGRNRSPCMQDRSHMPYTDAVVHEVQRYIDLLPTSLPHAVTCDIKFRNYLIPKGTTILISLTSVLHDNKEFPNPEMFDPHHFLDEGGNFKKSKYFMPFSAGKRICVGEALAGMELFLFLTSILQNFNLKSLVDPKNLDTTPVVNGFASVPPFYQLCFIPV
Assay: CYP inhibition, CYP2C9
Assay type: in vitro ADME
Conditions: microsomes, metabolite 4-hydroxy diclofenac
experimental.readout: IC50

Please give IC50, item by item, for the list that follows.
1. O=C(c1ncccn1)C1CCCN(Cc2ccccc2)C1 (stereo not drawn)
2. O=C(c1ccncc1)C1CCCN(Cc2ccccc2)C1 (stereo not drawn)
3. O=C(c1ccc(Cl)cc1)C1CCCN(C(=O)c2ccccc2)C1 (stereo not drawn)

[reply]
> 50 µM
5 to 20 µM
5 to 20 µM

###

Molecular target: hERG (IKr current) (Homo sapiens (Human), UniProt Q12809)
Sequence (Q12809 whole entry): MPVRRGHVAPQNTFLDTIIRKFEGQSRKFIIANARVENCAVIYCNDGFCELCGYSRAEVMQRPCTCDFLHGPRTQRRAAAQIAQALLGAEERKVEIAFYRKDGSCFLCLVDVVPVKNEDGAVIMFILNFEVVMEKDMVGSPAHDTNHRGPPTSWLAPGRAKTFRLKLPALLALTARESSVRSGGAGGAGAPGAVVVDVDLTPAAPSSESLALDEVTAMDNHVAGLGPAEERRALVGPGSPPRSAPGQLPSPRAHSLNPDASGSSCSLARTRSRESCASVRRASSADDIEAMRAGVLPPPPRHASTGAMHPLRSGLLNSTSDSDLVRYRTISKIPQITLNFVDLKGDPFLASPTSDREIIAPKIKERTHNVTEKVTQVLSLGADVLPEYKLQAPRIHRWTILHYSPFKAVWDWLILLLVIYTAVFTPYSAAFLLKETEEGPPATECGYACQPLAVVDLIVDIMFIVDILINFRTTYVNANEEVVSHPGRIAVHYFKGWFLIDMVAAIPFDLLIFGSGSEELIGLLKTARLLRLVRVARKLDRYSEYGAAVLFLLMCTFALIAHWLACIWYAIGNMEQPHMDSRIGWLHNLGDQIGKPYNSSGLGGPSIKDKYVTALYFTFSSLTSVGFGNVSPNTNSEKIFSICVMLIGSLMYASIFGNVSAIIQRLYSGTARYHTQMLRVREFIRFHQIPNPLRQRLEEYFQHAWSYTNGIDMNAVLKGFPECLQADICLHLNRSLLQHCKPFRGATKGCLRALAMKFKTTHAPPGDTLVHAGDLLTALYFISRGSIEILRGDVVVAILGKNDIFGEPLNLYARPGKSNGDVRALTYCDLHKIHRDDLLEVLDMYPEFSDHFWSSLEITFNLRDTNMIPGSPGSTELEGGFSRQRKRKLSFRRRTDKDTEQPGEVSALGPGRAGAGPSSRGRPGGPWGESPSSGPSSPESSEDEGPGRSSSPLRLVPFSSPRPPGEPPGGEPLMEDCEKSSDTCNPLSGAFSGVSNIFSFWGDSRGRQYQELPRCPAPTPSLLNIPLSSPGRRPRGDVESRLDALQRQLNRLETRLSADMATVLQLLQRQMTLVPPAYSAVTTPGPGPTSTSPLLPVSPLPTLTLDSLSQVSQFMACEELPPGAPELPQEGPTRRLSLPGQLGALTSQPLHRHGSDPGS
Assay: hERG inhibition, patch clamp (Port-a-Patch) on HEK cells stably transfected with the hERG clone, IKr current
Assay type: cell-based
Settings: human, HEK cells stably transfected with the hERG clone, pH 7.4, IKr current, 3 μM; read-out: Percent Inhibition Mean (%)
experimental.readout: inhibition at 3 µM (%)
Answers are plain numbers, in %.

[ask] Name the recorded inhibition at 3 µM for O=C(c1ccc(Cl)cc1)C1CCCN(C(=O)c2ccccc2)C1 (stereo not drawn) .
[reply] 18.8

[ask] What would you report for O=C(c1ccncc1)C1CCCN(Cc2ccccc2)C1 (stereo not drawn) ?
[reply] 0

// next item, inhibition at 3 µM requested
[ask] Name the recorded inhibition at 3 µM for O=C(c1ncccn1)C1CCCN(Cc2ccccc2)C1 (stereo not drawn) .
[reply] 0.73

###

Target: hERG (IKr current) (Homo sapiens (Human), UniProt Q12809)
Assay: hERG inhibition, patch clamp (Port-a-Patch) on HEK cells stably transfected with the hERG clone, IKr current
Assay type: cell-based
Conditions: human, HEK cells stably transfected with the hERG clone, pH 7.4, IKr current, 3 μM; read-out: Percent Inhibition Trial I
experimental.readout: inhibition at 3 µM (%)
Numbers only, in %.

Recorded inhibition at 3 µM, per entry:
[ask] Name the recorded inhibition at 3 µM for O=C(c1ncccn1)C1CCCN(Cc2ccccc2)C1 (stereo not drawn) .
[reply] 1.46

[ask] What would you report for O=C(c1ccncc1)C1CCCN(Cc2ccccc2)C1 (stereo not drawn) ?
[reply] 0

---
[ask] Name the recorded inhibition at 3 µM for O=C(c1ccc(Cl)cc1)C1CCCN(C(=O)c2ccccc2)C1 (stereo not drawn) .
[reply] 20.5
